The measurements presented in this section are drawn from patent US20260184782A1.

Property: EC50; scope: individual binders
- Target Or Test System: T1, human TIGIT-Fc (human, UniProt Q495A1 22-141, limits assumed)
- T1 construct: not shown: Fc; not described
- T1 sequence (looked up): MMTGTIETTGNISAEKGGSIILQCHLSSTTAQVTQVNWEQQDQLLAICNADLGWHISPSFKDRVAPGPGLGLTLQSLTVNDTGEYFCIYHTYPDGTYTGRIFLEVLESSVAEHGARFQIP
- Assay Overview: CD155 competition ELISA, titration
All answers are understood in nM, so give the number only.

| Binder | Assay Endpoint | Assay Result |
| --- | --- | --- |
| TIGIT-SC149 (Fc fusion, VHH-Fc) VHH: EVQLVESGGGLVQPGGSLRLSCAASGFTLENNMMGWFRQAPGKEREFVAAISRSGTLKAYADSVKGRFTISADNSKNTAYLQMNSLKPEDTAVYYCAKVQGPYCSGGSCYLYTFDLWGQGTLVTVSS | EC50 | 11.9 |

Then there is this binder:
The value of EC50 measured for the binder TIGIT-SC24 (Fc fusion, VHH-Fc) VHH: EVQLVESGGGLVQPGGSLRLSCAASGFTFDRSWMGWFRQAPGKEREVVASITSGGSTYYADSVKGRFTISADNSKNTAYLQMNSLKPEDTAVYYCAADVWYGSTWRNWGQGTLVTVSS turned out to be 0.423
